Below, each entry is listed with its recorded pIC50.
- TEST_DETAILS: Cytotoxicity against rat ASK cells assessed as reduction in cell viability by Sulforhodamine B assay
- Type: functional, cell-based
pIC50: −log10 of the molar value.

COC(=O)C1=CO[C@@H](O[C@H]2O[C@@H](COC(C)=O)[C@H](OC(C)=O)[C@@H](OC(C)=O)[C@@H]2OC(C)=O)[C@@H]2[C@@](C)(OC(C)=O)[C@@H](OC(=O)/C=C/c3ccccc3)C[C@]12O : < 4.30
COC(=O)C1=CO[C@@H](O[C@H]2O[C@@H](CO[Si](C)(C)C(C)(C)C)[C@H](OC(C)=O)[C@@H](OC(C)=O)[C@@H]2OC(C)=O)[C@@H]2[C@@](C)(O)[C@@H](OC(=O)/C=C/c3ccccc3)C[C@]12O : < 4.30

For the next question, use this compound.
Prompt line: // lookup pIC50 for `Cc1c2ccncc2c(C)c2c1[nH]c1ccccc12`
Response line: 5.69

---

The entries below come with measured pIC50 values attached.
- Test system: A549
- TEST_DETAILS: Cytotoxicity against human A549 cells assessed as reduction in cell viability by Sulforhodamine B assay
- Format: functional, cell-based
pIC50: −log10 of the molar value.

Prompt line: I am curious: what pIC50 value has been reported for `COC(=O)C1=CO[C@@H](O[C@H]2O[C@@H](CO[Si](c3ccccc3)(c3ccccc3)C(C)(C)C)[C@H](OC(C)=O)[C@@H](OC(C)=O)[C@@H]2OC(C)=O)[C@@H]2[C@@](C)(O)[C@@H](OC(C)=O)C[C@]12O` ?
Response line: 5.09

Prompt line: Same question for `Cc1c2ccncc2c(C)c2c1[nH]c1ccccc12` please.
Response line: 5.71

Prompt line: Item: `COC(=O)C1=CO[C@@H](O[C@H]2O[C@@H](COC(C)=O)[C@H](OC(C)=O)[C@@H](OC(C)=O)[C@@H]2OC(C)=O)[C@@H]2[C@@](C)(OC(C)=O)[C@@H](OC(=O)/C=C/c3ccccc3)C[C@]12O`
Response line: < 4.30

Prompt line: How about this compound: `COC(=O)C1=CO[C@@H](O[C@H]2O[C@@H](COC(C)=O)[C@H](OC(C)=O)[C@@H](OC(C)=O)[C@@H]2OC(C)=O)[C@@H]2[C@@](C)(O)[C@@H](OC(=O)/C=C/c3ccccc3)C[C@]12O`
Response line: < 4.30

---

- TEST_DETAILS: Cytotoxicity against rat ASK cells assessed as reduction in cell viability by Sulforhodamine B assay
- Assay type: functional, cell-based
VALUE_TYPE: IC50

Prompt line: Fill in the blank: the reported IC50 of `COC(=O)C1=CO[C@@H](O[C@H]2O[C@@H](CO[Si](c3ccccc3)(c3ccccc3)C(C)(C)C)[C@H](OC(C)=O)[C@@H](OC(C)=O)[C@@H]2OC(C)=O)[C@@H]2[C@@](C)(O)[C@@H](OC(=O)/C=C/c3ccccc3)C[C@]12O` is ____.
Response line: > 50 µM

Prompt line: Try this molecule too: `COC(=O)C1=CO[C@@H](O[C@H]2O[C@@H](CO)[C@H](O)[C@@H](O)[C@@H]2O)[C@@H]2[C@@](C)(O)[C@@H](OC(=O)/C=C/c3ccccc3)C[C@]12O`
Response line: > 50 µM

Prompt line: Next: `COC(=O)C1=CO[C@@H](O[C@H]2O[C@@H](CO[Si](c3ccccc3)(c3ccccc3)C(C)(C)C)[C@H](OC(C)=O)[C@@H](OC(C)=O)[C@@H]2OC(C)=O)[C@@H]2[C@@](C)(O)[C@@H](OC(C)=O)C[C@]12O`
Response line: 9.19 µM

Prompt line: Quick one: `COC(=O)C1=CO[C@@H](O[C@H]2O[C@@H](COC(C)=O)[C@H](OC(C)=O)[C@@H](OC(C)=O)[C@@H]2OC(C)=O)[C@@H]2[C@@](C)(O)[C@@H](OC(=O)/C=C/c3ccccc3)C[C@]12O`
Response line: > 50 µM
